Molecular target: CAXII (Homo sapiens);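 note: recombinant CAXII made in E. coli, ANS-fluorescence thermal shift with affinity fitted from Tm versus ligand concentration, intrinsic energy from Kd_obs corrected for deprotonated sulfonamide and Zn-water fractions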
Construct: made in house; host or cells: E. coli
Sequence (O43570 25-354): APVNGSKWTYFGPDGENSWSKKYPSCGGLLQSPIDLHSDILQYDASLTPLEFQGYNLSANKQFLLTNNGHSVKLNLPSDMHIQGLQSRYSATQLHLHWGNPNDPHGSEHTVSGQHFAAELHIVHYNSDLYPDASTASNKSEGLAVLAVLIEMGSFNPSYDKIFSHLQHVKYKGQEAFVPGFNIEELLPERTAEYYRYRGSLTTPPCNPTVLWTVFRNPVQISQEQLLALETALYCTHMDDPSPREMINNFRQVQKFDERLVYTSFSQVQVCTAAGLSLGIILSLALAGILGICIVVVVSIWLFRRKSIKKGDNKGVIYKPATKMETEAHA
Assay: biochemical
Format: binding
Settings: FTSA, pH 7.0, 37 °C; read-out: Observed Dissociation Constant (Kd_obs), CAXII
measured_endpoint: Kd (µM)

Field: example entries. Status: answers known.
1. CCC(C)=NN1C(=O)CC(CNc2ccc(S(N)(=O)=O)cc2Cl)C1=O (stereo not drawn) [Compound 4b] : 4
2. NS(=O)(=O)c1ccc(NCC(CC(=O)NN=Cc2cccc(Cl)c2)C(=O)NN=Cc2cccc(Cl)c2)c(Cl)c1 (stereo not drawn) [Compound 11b] : 33
3. NNC(=O)CC(CNc1ccc(S(N)(=O)=O)cc1)C(=O)NN (stereo not drawn) [Compound 2a] : 71
4. NS(=O)(=O)c1ccc(NCC(CC(=O)NNC(=S)Nc2ccccc2)C(=O)NNC(=S)Nc2ccccc2)cc1 (stereo not drawn) [Compound 23a] : 2.2
5. CC(C)=NNC(=O)CC(CNc1ccc(S(N)(=O)=O)cc1)C(=O)NN=C(C)C (stereo not drawn) [Compound 3a] : 110

(A) CC(C)=NNC(=O)CC(CNc1ccc(S(N)(=O)=O)cc1Cl)C(=O)NN=C(C)C (stereo not drawn) [Compound 3b]
(B) NS(=O)(=O)c1ccc(NCC(CC(=O)NN=Cc2ccccc2Cl)C(=O)NN=Cc2ccccc2Cl)cc1 (stereo not drawn) [Compound 10a]
Field: entry with larger Kd (options A / B ). Mark your selection by writing its label. B
(B: 50 µM, A: 14 µM)
